All values here come from ChEMBL document CHEMBL4028856.

Quick reference: pIC50 of the listed items.
biological target: GATA4/NKX2-5 (Mus musculus, UniProt P42582+Q08369); test: Inhibition of mouse GATA4/NKX2-5 transcriptional synergy expressed in African green monkey COS-1 cells measured after 30 hrs by dual luciferase reporter gene assay
Sequence (Q08369 whole entry): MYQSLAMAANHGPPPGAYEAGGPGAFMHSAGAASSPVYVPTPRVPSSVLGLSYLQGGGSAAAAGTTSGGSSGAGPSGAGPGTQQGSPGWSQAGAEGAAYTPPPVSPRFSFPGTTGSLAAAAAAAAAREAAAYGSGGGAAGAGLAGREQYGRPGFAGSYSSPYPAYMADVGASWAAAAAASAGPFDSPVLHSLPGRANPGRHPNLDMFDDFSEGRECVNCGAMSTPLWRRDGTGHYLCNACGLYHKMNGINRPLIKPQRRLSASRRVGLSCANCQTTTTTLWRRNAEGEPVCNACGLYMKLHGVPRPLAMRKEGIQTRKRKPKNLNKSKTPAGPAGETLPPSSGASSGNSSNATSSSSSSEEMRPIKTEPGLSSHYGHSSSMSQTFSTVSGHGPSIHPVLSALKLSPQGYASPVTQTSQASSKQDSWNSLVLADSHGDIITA
Sequence (P42582 whole entry): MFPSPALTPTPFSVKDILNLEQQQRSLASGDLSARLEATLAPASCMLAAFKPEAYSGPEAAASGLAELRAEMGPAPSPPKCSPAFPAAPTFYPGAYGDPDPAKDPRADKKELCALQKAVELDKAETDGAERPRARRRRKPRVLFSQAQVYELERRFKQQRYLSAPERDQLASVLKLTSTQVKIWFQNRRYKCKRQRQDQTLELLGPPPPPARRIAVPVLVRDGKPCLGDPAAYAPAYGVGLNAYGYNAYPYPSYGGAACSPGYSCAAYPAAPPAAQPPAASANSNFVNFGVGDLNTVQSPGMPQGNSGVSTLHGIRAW
pIC50: −log10 of the molar value.

{"compound string": "Cc1onc(-c2ccccc2)c1C(=O)Nc1ccc(S(=O)(=O)N2CCOCC2)cc1", "pIC50": "< 4.30"}
{"compound string": "CCNc1ccc(NC(=O)c2c(-c3ccccc3)noc2C)cc1", "pIC50": "< 4.30"}

# context switch: different compound, same pIC50
# get_value(readout='pIC50', item= `CC(C)CNC(=O)c1ccc(NC(=O)c2ccccc2)cc1` )
< 4.30
